Target: UniProtKB P05177
Sequence (P05177 whole entry): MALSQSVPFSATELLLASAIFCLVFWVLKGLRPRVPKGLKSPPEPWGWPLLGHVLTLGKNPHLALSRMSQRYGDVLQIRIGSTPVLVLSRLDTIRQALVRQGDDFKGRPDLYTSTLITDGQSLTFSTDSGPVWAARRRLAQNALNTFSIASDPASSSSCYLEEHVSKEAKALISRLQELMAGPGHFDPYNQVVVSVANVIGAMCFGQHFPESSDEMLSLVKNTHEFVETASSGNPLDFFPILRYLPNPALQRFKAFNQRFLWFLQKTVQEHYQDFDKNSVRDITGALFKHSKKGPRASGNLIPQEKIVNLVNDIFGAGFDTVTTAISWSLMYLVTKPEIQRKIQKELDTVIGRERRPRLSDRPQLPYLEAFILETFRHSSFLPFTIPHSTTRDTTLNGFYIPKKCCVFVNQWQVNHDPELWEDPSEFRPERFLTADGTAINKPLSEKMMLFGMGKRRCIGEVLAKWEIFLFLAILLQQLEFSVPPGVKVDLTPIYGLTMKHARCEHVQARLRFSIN
Experiment: Inhibition of human CYP1A2 at 10 uM relative to control
Assay type: ADME
result-type: inhibition at 10 µM (%)

INSERT INTO results (chemical_smiles, assay_target, unit_spec, numeric_readout) VALUES
  ('O=C(O)c1c(Nc2cccc(F)c2)[nH]c2cc(Cl)ccc2c1=O', 'UniProtKB P05177', '%', 72);

---

Test system: NIH3T3
Experiment: Cytotoxicity against mouse NIH3T3 cells
Assay type: toxicity, cell-based
result-type: CC50 (µM)

INSERT INTO results (chemical_smiles, unit_spec, numeric_readout) VALUES
  ('O=C(O)c1c(Nc2cccc(F)c2)[nH]c2cc(Cl)ccc2c1=O', 'µM', 67);
